assay-protocol: NCI Yeast Anticancer Drug Screen. Data for the mlh1 rad18 strain (AID 175)
condition-context: S. cerevisiae mlh1 rad18 strain growth inhibition; at 5.0 µM (retest, dose inferred, filed as 0.5)
About 79,000 compounds went through this panel and 15% of them were active in at least one assay; those are over-represented in the sample as a whole. Active and inactive are the calls of the source. Cut-off read from the data, not from the text of the source: active = growth inhibition above about 70%; inactive = the rest.
Select the matching outcome among active, inactive

Per the records of this test, what outcome belongs to [Br][Hg][CH2]COC[CH2][Hg][Br] ?
active

Per the records of this test, what outcome belongs to CC(Cl)CNC(C)C (configuration not stated) ?
inactive

Per the records of this test, what outcome belongs to O=C1c2ccccc2C(=O)C(Cl)C1Cl (configuration not stated) ?
inactive

Per the records of this test, what outcome belongs to COC(=O)C1=C(C)NC(=S)NC1c1ccc(N(CCCl)CCCl)cc1Cl (configuration not stated) ?
inactive

Per the records of this test, what outcome belongs to O=[N+]([O-])c1ccc(SC2CCCCCCC2Cl)c([N+](=O)[O-])c1 (configuration not stated) ?
inactive

Per the records of this test, what outcome belongs to CC(Br)CN(CC(C)Br)c1ccc2c(c1)Cc1ccccc1-2 (configuration not stated) ?
inactive

Per the records of this test, what outcome belongs to c1ccc2cc3n[se]nc3cc2c1 ?
inactive

Per the records of this test, what outcome belongs to CC1=CC2OC3CC4OC(=O)/C=C/C=C/C(=O)OCCC(C)C(O)C(=O)OCC2(CC1O)C4(C)C31CO1 (configuration not stated) ?
active

Per the records of this test, what outcome belongs to Cn1cc(NC(=O)c2cc(NC(=O)CN=C(N)N)cn2C)cc1C(=O)NCCC(=N)N ?
inactive

Per the records of this test, what outcome belongs to CN(/N=C/c1ccc(Cl)cc1)P(=O)(N1CC1)N1CC1 ?
inactive

Per the records of this test, what outcome belongs to O=S(=O)(c1ccccc1)N1C2C3CCC(CC3)C21 (configuration not stated) ?
inactive

Per the records of this test, what outcome belongs to CS(=O)(=O)[O-].CS(=O)(=O)[O-].NC1CCCCC1N.[Pt+4] (configuration not stated) ?
active

---

assay-protocol: NCI Yeast Anticancer Drug Screen. Data for the mec2-1 strain (AID 157)
condition-context: S. cerevisiae mec2-1 strain, at 50.0 µM (retest, dose inferred, filed as 5.0)
Procedure: Growth inhibition of yeast strains with defined genetic alterations is measured as a screen for potential anti-cancer activity. Selected strains with alterations in DNA damage repair or cell cycle control were exposed to compounds and growth inhibition was measured relative to vehicle treated controls. The strain used in this assay is mec2-1
Compounds without any hit were thinned out: in the full panel of roughly 79,000, 15% have a hit. Active and inactive are the calls of the source. Cut-off read from the data, not from the text of the source: active = growth inhibition above about 70%; inactive = the rest.
Select the matching outcome among 1 (active), 0 (inactive)

Per the records of this test, what outcome belongs to O=C(COc1ccc(Cl)c(Cl)c1)N(Cc1ccccc1)Cc1ccc[n+](Cc2ccc(Cl)cc2S(=O)(=O)F)c1 ?
0

Per the records of this test, what outcome belongs to CC(Cl)CN(C)C (configuration not stated) ?
0

Per the records of this test, what outcome belongs to CCC[CH2][Sn]([Cl])([Cl])[CH2]CCC ?
1

Per the records of this test, what outcome belongs to Clc1ccc2c(NCCCCN3OC3c3ccccc3)ccnc2c1 (configuration not stated) ?
0

Per the records of this test, what outcome belongs to S=P(Nc1ccccc1)(Nc1ccccc1)Oc1ccccc1 ?
1

Per the records of this test, what outcome belongs to C[CH2][Sn]([CH2]C)([O]C(C)=O)[O][Sn]([CH2]C)([CH2]C)[O]C(C)=O ?
1

Per the records of this test, what outcome belongs to c1ccc2cc3n[se]nc3cc2c1 ?
0

Per the records of this test, what outcome belongs to CCCCCCCCC(=O)[O][Hg][c]1ccccc1 ?
1

Per the records of this test, what outcome belongs to Cc1cccc(OCC(O)CN2CC2)c1 (configuration not stated) ?
0

Per the records of this test, what outcome belongs to CCC1(O)C(=O)OCc2c1cc1n(c2=O)Cc2cc3cc([N+](=O)[O-])ccc3nc2-1 (configuration not stated) ?
0

Per the records of this test, what outcome belongs to CC(=O)Oc1cccc2c1CC(C[Se]c1ccccc1)C(=O)O2 (configuration not stated) ?
0

Per the records of this test, what outcome belongs to CC(C)(C)C[CH2][Hg][Cl] ?
1
